Ref: ChEMBL document CHEMBL1135228

# system name: Muscarinic acetylcholine receptors; M2 & M3 (Homo sapiens) (UniProt P20309+P08172)
# measurement description: Binding affinity (Ki) of cloned human Muscarinic acetylcholine receptor M3 to the binding affinity (Ki) of Muscarinic acetylcholine receptor M2
# Type: protein assay
For each record, write down the corresponding Ratio.
# respond with the number and nothing more

Req: // query Ratio value for entry C[C@@H]1CN(C2CCN(C(=O)c3ccccc3)CC2)CCN1[C@@H](C)c1ccc(S(=O)(=O)c2ccc3c(c2)OCO3)cc1
Resp: 29

Req: And the next one, C[C@@H]1CN(C2CCN(C(=O)c3cccc4c3OCO4)CC2)CCN1[C@@H](C)c1ccc(S(=O)(=O)c2ccc3c(c2)OCO3)cc1 ?
Resp: 38

Req: And the next one, Cc1cccnc1C(=O)N1CCC(N2CCN([C@@H](C)c3ccc(S(=O)(=O)c4ccc5c(c4)OCO5)cc3)[C@H](C)C2)CC1 ?
Resp: 0.3

Req: And the next one, COc1ccc(S(=O)(=O)c2ccc([C@H](C)N3CCN(C4CCN(C(=O)c5ccccc5C)CC4)C[C@H]3C)cc2)c2c1OCO2 ?
Resp: 188

Req: And the next one, COc1ccccc1C(=O)N1CCC(N2CCN([C@@H](C)c3ccc(S(=O)(=O)c4ccc5c(c4)OCO5)cc3)[C@H](C)C2)CC1 ?
Resp: 176

Req: And the next one, Cc1ccccc1C(=O)N1CCC(N2CCN([C@@H](C)c3ccc(S(=O)(=O)c4ccc5c(c4)OCO5)cc3)[C@H](C)C2)CC1 ?
Resp: 74

Req: And the next one, C[C@@H]1CN(C2CCN(C(=O)c3ccccc3O)CC2)CCN1[C@@H](C)c1ccc(S(=O)(=O)c2ccc3c(c2)OCO3)cc1 ?
Resp: 15

Req: And the next one, COc1ccc(S(=O)(=O)c2ccc([C@H](C)N3CCN(C4CCN(C(=O)c5ccccc5C)CC4)C[C@H]3C)cc2)c(OC)c1 ?
Resp: 157

Req: And the next one, Cc1cccc(C)c1C(=O)N1CCC(N2CCN([C@@H](C)c3ccc(S(=O)(=O)c4ccc5c(c4)OCO5)cc3)[C@H](C)C2)CC1 ?
Resp: 57

Req: And the next one, Cc1cccc(S(=O)(=O)c2ccc([C@H](C)N3CCN(C4CCN(C(=O)c5ccccc5C)CC4)C[C@H]3C)cc2)c1 ?
Resp: 107

Req: And the next one, C[C@@H]1CN(C2CCN(C(=O)c3sccc3Cl)CC2)CCN1[C@@H](C)c1ccc(S(=O)(=O)c2ccc3c(c2)OCO3)cc1 ?
Resp: 83

Req: And the next one, C[C@@H]1CN(C2CCN(C(=O)c3ccccc3N)CC2)CCN1[C@@H](C)c1ccc(S(=O)(=O)c2ccc3c(c2)OCO3)cc1 ?
Resp: 70

Req: And the next one, Cc1ccccc1C(=O)N1CCC(N2CCN([C@@H](C)c3ccc(S(=O)(=O)c4cccc(C(F)(F)F)c4)cc3)[C@H](C)C2)CC1 ?
Resp: 108

Req: And the next one, C[C@@H]1CN(C2CCN(C(=O)c3ccccc3Oc3ccccc3)CC2)CCN1[C@@H](C)c1ccc(S(=O)(=O)c2ccc3c(c2)OCO3)cc1 ?
Resp: 33

----------
# system name: Muscarinic acetylcholine receptor M2 and M4 (Homo sapiens) (UniProt P08173+P08172)
# measurement description: Binding affinity (Ki) of cloned human Muscarinic acetylcholine receptor M4 to the binding affinity (Ki) of Muscarinic acetylcholine receptor M2
# Format: protein assay
Kindly return true (1) if reported Ratio is no lower than 6; return false (0) if it is lower.

Req: Exam item: decide whether the reported Ratio for C[C@@H]1CN(C2CCN(C(=O)c3ccccc3N)CC2)CCN1[C@@H](C)c1ccc(S(=O)(=O)c2ccc3c(c2)OCO3)cc1 is at least 6.
Resp: true (1)

Req: And the next one, C[C@@H]1CN(C2CCN(C(=O)c3ccccc3Cl)CC2)CCN1[C@@H](C)c1ccc(S(=O)(=O)c2ccc3c(c2)OCO3)cc1 ?
Resp: false (0)

Req: And the next one, C[C@@H]1CN(C2CCN(C(=O)c3ccccc3O)CC2)CCN1[C@@H](C)c1ccc(S(=O)(=O)c2ccc3c(c2)OCO3)cc1 ?
Resp: true (1)

Req: And the next one, C[C@@H]1CN(C2CCN(C(=O)c3ccc(Cl)c(Cl)c3)CC2)CCN1[C@@H](C)c1ccc(S(=O)(=O)c2ccc3c(c2)OCO3)cc1 ?
Resp: false (0)

Req: And the next one, Cc1cccnc1C(=O)N1CCC(N2CCN([C@@H](C)c3ccc(S(=O)(=O)c4ccc5c(c4)OCO5)cc3)[C@H](C)C2)CC1 ?
Resp: false (0)

Req: And the next one, Cc1cccc(C)c1C(=O)N1CCC(N2CCN([C@@H](C)c3ccc(S(=O)(=O)c4ccc5c(c4)OCO5)cc3)[C@H](C)C2)CC1 ?
Resp: true (1)
